- assayed_system: T1, HipBso (Shewanella oneidensis MR-1, UniProt PDB:4PU3_2 1-118)
- T1 sequence: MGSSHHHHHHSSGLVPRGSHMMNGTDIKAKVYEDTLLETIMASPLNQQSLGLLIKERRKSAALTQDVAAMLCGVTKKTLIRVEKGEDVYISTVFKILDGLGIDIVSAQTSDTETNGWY
- experiment_notes: ITC
pKd: −log10 of the molar value.
measured_parameter: pKd

> print(dat)
                                     binder  reported.measurement
1  hipBAso operator DNA (26 bp) (dsDNA) DNA 1: ATTAGGTGTACTTATCTACACTTTTT DNA 2: AAAAAGTGTAGATAAGTACACCTAAT                  6.54

Data credit: paper PMC4150777
